- system_name: HIV-1 JRFL envelope glycoprotein gp41 (N-trimer of the prehairpin intermediate) (HIV-1 strain JRFL)
- test_name: cell-based or functional assay
Bridges are numbered along the chain shown (N, C = ends). [ ]: non-standard residue; d: D form.
measurement_name: IC50, JRFL pseudovirion entry (nM)
# value in nM; strip the unit string

// solved cases for IC50, JRFL pseudovirion entry follow
1. Ac-[dK]G[dA][dC][dD][dY][dP][dE][dW][dQ][dW][dL][dC][dA][dA]-NH2 (disulfide 4-13 (inferred); also: dimer, N- to N-terminal link by PEG5 spacer) [N5N(PIE7)2]
1410
2. Ac-[dH][dP][dC][dD][dY][dP][dE][dW][dQ][dW][dL][dC][dE][dL]G[dK]-NH2 (disulfide 3-12 (inferred)) [PIE12]
578
3. Ac-[dH][dP][dC][dD][dY][dP][dE][dW][dQ][dW][dL][dC][dR][dL]G[dK]-NH2 (disulfide 3-12 (inferred)) [PIE14]
1050

IN: Form field: reported IC50, JRFL pseudovirion entry of Ac-G[dA][dC][dD][dY][dP][dE][dW][dQ][dW][dL][dC][dA][dA]G[dK][dK]-NH2 (disulfide 3-12 (inferred)) [PIE7-GKK]
OUT: 19100
